target: Type III NOS (BAE homogenate preparation) (Bos taurus, UniProt P29473)
Construct: partially purified isozyme III from bovine aortic endothelial cells (BAE cells); endogenous in cells; host or cells: bovine aortic endothelial (BAE) cells
assay_summary: [3H]-Arginine to [3H]-Citrulline conversion, BAE homogenate preparation (Type III NOS)
Assay type: biochemical, bovine
conditions: 100 μM, read-out: Percent Inhibition of [3H]-Citrulline Formation, BAE Preparation
Kindly return Met if reported inhibition at 100 µM is no lower than 40%; return Not met if it is lower.

compound	category
CNC(=N)NC/C(C)=C/[C@H](N)CO [Example 27]	Met
N=C(N)NC/C=C/[C@H](N)CO [Example 4]	Not met
C/C(=C\[C@H](N)CO)CNC(=N)N [Example 21]	Met
N=C(N)NC/C(=C/[C@H](N)CO)Cc1ccccc1 [Example 25]	Not met
CNC(=N)NC/C=C/[C@@H](N)CO [Example 19]	Not met

Identify whether the reported inhibition at 100 µM of the following compound is 40% or greater: CCNC(=N)NC/C=C/[C@H](N)CO [Example 12] Not met

Identify whether the reported inhibition at 100 µM of the following compound is 40% or greater: CC(C)(C)OC(=O)N1[C@H](/C=C/CNC(=N)N)COC1(C)C [Example 22] Met

Identify whether the reported inhibition at 100 µM of the following compound is 40% or greater: C/C(=C\[C@H](N)CO)CNC(=N)N[N+](=O)[O-] [Example 15] Met
